Value source: paper PMC6384738

Recorded MIC K. pneumoniae ATCC 700603 values for a group of compounds are listed next.
# System: K. pneumoniae ATCC 700603
# protocol.text: microbe, parasite or virus in culture
# assay.context: ATCC 700603, 18 h
Where a SMILES comes first, the peptide text is derived from it. Bridges are numbered along the chain shown (N, C = ends). [ ]: non-standard residue; d: D form. The star is where a group is joined. Benzoyl(3-Ph) = O=C(c1cccc(-c2ccccc2)c1)*; dOrn = NCCC[C@@H](N)C(=O)O; dDab = NCC[C@@H](N)C(=O)O; Octanoyl = CCCCCCCC(=O)*; Orn = NCCC[C@H](N)C(=O)O; Dab = NCC[C@H](N)C(=O)O
endpoint: MIC K. pneumoniae ATCC 700603

compound	value.measured
CCCCCCCC(=O)N[C@@H](CCN)C(=O)N[C@H](C(=O)N[C@H](CO)C(=O)N[C@H]1CCNC(=O)[C@H]([C@@H](C)O)NC(=O)[C@H](CCN)NC(=O)[C@H](CCN)NC(=O)[C@H](CC(C)C)NC(=O)[C@@H](Cc2ccccc2)NC(=O)[C@H](CCN)NC1=O)[C@@H](C)O [Compound 34] (Octanoyl-[Dab]T[dS][Dab][Dab][dF]L[Dab][Dab]T; lactam 4-C)	2 µg/mL
CCCCCCCC(=O)N[C@H](C(=O)N[C@@H](CCCN)C(=O)N[C@H]1CCNC(=O)[C@H]([C@@H](C)O)NC(=O)[C@H](CCN)NC(=O)[C@H](CCN)NC(=O)[C@H](CC(C)C)NC(=O)[C@@H](Cc2ccccc2)NC(=O)[C@H](CCN)NC1=O)[C@@H](C)O [Compound 40] (Octanoyl-T[Orn][Dab][Dab][dF]L[Dab][Dab]T; lactam 3-C)	4 µg/mL
CCCCCCCC(=O)N[C@H](C(=O)N[C@H](CCCN)C(=O)N[C@H]1CCNC(=O)[C@H]([C@@H](C)O)NC(=O)[C@H](CCN)NC(=O)[C@H](CCN)NC(=O)[C@H](CC(C)C)NC(=O)[C@@H](Cc2ccccc2)NC(=O)[C@H](CCN)NC1=O)[C@@H](C)O [Compound 41] (Octanoyl-T[dOrn][Dab][Dab][dF]L[Dab][Dab]T; lactam 3-C)	4 µg/mL
CCCCCCCC(=O)N[C@H](C(=O)NCC(=O)N[C@H]1CCNC(=O)[C@H]([C@@H](C)O)NC(=O)[C@H](CCN)NC(=O)[C@H](CCN)NC(=O)[C@H](CC(C)C)NC(=O)[C@@H](Cc2ccccc2)NC(=O)[C@H](CCN)NC1=O)[C@@H](C)O [Compound 49] (Octanoyl-TG[Dab][Dab][dF]L[Dab][Dab]T; lactam 3-C)	>32 µg/mL
CCCCCCCC(=O)N[C@H](C(=O)N[C@@H](CO)C(=O)N[C@H]1CCNC(=O)[C@H]([C@@H](C)O)NC(=O)[C@H](CCN)NC(=O)[C@H](CCN)NC(=O)[C@H](CC(C)C)NC(=O)[C@@H](Cc2ccccc2)NC(=O)[C@H](CCN)NC1=O)[C@@H](C)O [Compound 35] (Octanoyl-TS[Dab][Dab][dF]L[Dab][Dab]T; lactam 3-C)	32 µg/mL
CC(C)C[C@@H]1NC(=O)[C@@H](Cc2ccccc2)NC(=O)[C@H](CCN)NC(=O)[C@@H](NC(=O)[C@@H](CCN)NC(=O)[C@@H](NC(=O)c2cccc(-c3ccccc3)c2)[C@@H](C)O)CCNC(=O)[C@H]([C@@H](C)O)NC(=O)[C@H](CCN)NC(=O)[C@H](CCN)NC1=O [Compound 27] ({Benzoyl(3-Ph)}-T[dDab][Dab][Dab][dF]L[Dab][Dab]T; lactam 3-C)	16 µg/mL
